# system-tested: FlhF-His6 (Campylobacter jejuni 81-176?)
# Sequence: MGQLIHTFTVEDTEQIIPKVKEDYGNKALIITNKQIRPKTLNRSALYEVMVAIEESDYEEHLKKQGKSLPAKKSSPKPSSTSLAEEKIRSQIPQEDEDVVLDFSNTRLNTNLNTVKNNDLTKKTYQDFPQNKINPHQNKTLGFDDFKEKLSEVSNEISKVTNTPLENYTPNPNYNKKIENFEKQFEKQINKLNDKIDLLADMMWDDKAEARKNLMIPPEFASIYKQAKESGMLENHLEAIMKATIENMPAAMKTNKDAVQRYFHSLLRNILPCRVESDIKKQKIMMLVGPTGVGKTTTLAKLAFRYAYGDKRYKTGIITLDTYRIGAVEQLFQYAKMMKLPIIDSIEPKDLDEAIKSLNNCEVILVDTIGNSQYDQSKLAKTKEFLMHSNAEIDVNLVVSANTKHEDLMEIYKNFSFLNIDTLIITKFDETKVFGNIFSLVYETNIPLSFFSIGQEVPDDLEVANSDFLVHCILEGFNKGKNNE
# protocol-text: EMSA
measurement-kind: binding

Please review the entries below; each comes with its answer.
AAGCTCTATCAAAAGAAGTTTTAAAAACGCATCCTTATCTAAGGTAGCGTTTGGATTGCTCACTATTCCTGAGCTACTGCTTGAATCTGTTCTAGTTGTCCCACTAGTACTTCCTGAAGAAGTAGTACCTGAAGTTGTAGCAGTGGTATTTAAATTCCAATCCGATGATGATATCATTATAAACTCCTTTTTATTTAGTTTTTTATTATTTAAGCAATAAGTGTTCCAATTATCGTCGACCTGCAGGCA (double strand) [fliK promoter] :: no binding
TGCCTGCAGGTCGACGATGGGTGTGATTTTGGTAATTTTCATTACACAAAAGACCAAAGCTTCATAAACTCCCAAAATACCTTTAAATTTTTTCTATAAATTTTTAAAAAATTTCAAAAGTTGGAACAGAACTTGCTTGTAAACTTCACATAAACGCAAAAGTTTTTTAAAGCCAAAGCGTTAAATTTTTTAAAGCAATATTTTATAAAGGATTTAAGA (double strand) [flgE promoter] :: no binding
TGCCTGCAGGTCGACGATAAATATCGACCTAAAGCGTAAATTTTATACCTTAAAAAGAAAAAATTATAATTTTAACAGAGCTTTAGAAAAATTTGAAAAAATATTCAAATCATAAACATAATAACCGATTTATATAGAAAGTTAAGCAATTTTTAGATAAAATCCAAAGCTTATATAAATTTCAAGGATAATCAA (double strand) [rpoD promoter] :: binds
TGCCTGCAGGTCGACGATAATTTAATCATTTTTGAACACCACTCAACCATAAAAACTCCCGAAAAAATCCAAAATTTTCAAAAAGTCAAAGAAAAGAAATTTGGATCAACTAGCTTAAGCTTTTACGCTTCTTAACTTACTTGGAACACTTCTTGCTTGATCTATCATCAACAATAGATTAAAGGAAGAATCCA (double strand) [PflgI fragment 1] :: binds

Now examine the next entry.
Return binding measured with FlhF-His6 (Campylobacter jejuni 81-176?) given this sequence: TGCCTGCAGGTCGACGATGCTTTTACGCTTCTTAACTTACTTGGAACACTTCTTGCTTGATCTATCATCAACAATAGATTAAAGGAAGAATCCA (double strand) [PflgI fragment 5]
no binding
